target: recombinant human Factor IX (rhFIX, Genetics Institute) (human) (UniProt P00740); assay: BIAcore kinetics of Factor IX binding
Sequence (P00740 47-461 limits assumed): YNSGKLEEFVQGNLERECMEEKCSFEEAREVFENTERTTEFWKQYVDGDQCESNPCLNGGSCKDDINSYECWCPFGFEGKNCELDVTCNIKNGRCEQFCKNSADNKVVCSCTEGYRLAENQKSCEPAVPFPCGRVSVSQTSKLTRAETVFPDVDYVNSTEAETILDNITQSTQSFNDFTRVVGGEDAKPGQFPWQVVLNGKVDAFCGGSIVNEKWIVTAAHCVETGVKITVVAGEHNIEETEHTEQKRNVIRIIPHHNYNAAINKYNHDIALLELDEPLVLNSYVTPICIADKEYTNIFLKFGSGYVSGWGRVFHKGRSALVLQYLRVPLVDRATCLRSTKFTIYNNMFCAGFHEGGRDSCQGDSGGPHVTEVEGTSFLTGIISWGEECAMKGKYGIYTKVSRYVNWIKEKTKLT
Decide using koff alone. Strictly below 0.001 s⁻¹: Met. Equal to or above 0.001 s⁻¹: Not met.

For humanized anti-Factor IX monoclonal antibody SB 249415 (antibody, V domains shown) VH: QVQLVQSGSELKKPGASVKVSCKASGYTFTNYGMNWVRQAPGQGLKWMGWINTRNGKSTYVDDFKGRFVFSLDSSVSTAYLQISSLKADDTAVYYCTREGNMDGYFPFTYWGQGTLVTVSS VL: EIVLTQSPATLSLSPGERATLSCRASSSVNYMHWYQQRPGQAPKPWIYATSNLASGVPARFSGSGSGTDFTLTISSLEPEDFAVYYCQQWSINPRTFGGGTKVEIKR , is the recorded koff below the cut-off of 0.001 s⁻¹?
Met

For humanized anti-Factor IX monoclonal antibody SB 249416 (antibody, V domains shown) VH: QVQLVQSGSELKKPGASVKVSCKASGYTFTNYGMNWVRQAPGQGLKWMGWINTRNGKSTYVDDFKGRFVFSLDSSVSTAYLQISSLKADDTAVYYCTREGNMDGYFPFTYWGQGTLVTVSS VL: EIVLTQSPATLSLSPGERATLSCRASSSVNYMHWYQQRPGQAPKPWIYATSNLASGVPARFSGSGSGTDYTLTISSLEPEDFAVYYCQQWSINPRTFGGGTKVEIKR , is the recorded koff below the cut-off of 0.001 s⁻¹?
Met

For humanized anti-Factor IX monoclonal antibody SB 257732 (antibody, V domains shown) VH: QIQLVQSGSELKKPGASVKVSCKASGYTFTNYGMNWVRQAPGQGLEWMGWINTRNGKSTYVDDFKGRFVFSLDTSVSTAYLQISSLKAEDTAVYFCTREGNMDGYFPFTYWGQGTLVTVSS VL: QIVLTQSPSSLSASVGDRVTITCRASSSVNYMHWYQQKPGKAPKPWIYATSNLASGVPSRFSGSGSGTDYTLTISSLQPEDFATYYCQQWSINPRTFGGGTKLEIKR , is the recorded koff below the cut-off of 0.001 s⁻¹?
Not met

For humanized anti-Factor IX monoclonal antibody SB 249413 (antibody, V domains shown) VH: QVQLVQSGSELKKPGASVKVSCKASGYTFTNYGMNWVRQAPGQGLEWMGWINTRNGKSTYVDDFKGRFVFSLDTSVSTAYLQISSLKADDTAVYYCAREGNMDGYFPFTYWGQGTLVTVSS VL: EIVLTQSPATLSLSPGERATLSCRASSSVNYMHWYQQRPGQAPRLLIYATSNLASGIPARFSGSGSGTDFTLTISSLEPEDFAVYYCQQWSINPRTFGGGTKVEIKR , is the recorded koff below the cut-off of 0.001 s⁻¹?
Not met

The values you see were collected from patent US20020146411A1.
